# System: E. coli (ATCC 25922)
# ASSAY_INFO: MIC broth microdilution, E. coli ATCC 25922
# Format: cell-based
# RECORDED_CONDITIONS: Escherichia coli, ATCC25922; read-out: MIC E. coli (ATCC 25922)
# Protocol: Antimicrobial testing was carried out by the broth microdilution method in 96-well plate format following the Clinical and Laboratory Standards Institute (CLSI) guidelines and European Committee on Antimicrobial Susceptibility Testing (EUCAST) recommendations. […] After incubation the minimal inhibitory concentration (MIC) values were determined by visual inspection as the lowest dilution of compounds showing no turbidity. […]

{"columns": ["MOLECULE", "UNIT_ABBREVIATION", "MIC"],
 "data": [
  ["COc1ccc2nccc(CCN3CCC(NCc4ccc(F)cc4)CC3)c2n1", "µg/mL", 32],
  ["COc1ccc2nccc(CCN3CCC(NCc4cnn(C(C)C)c4)CC3)c2n1", "µg/mL", 8],
  ["COc1ccc2nccc(CCN3CCC(NCc4ccc(CO)cc4)CC3)c2n1", "µg/mL", 128],
  ["COc1ccc2nccc(CCN3CCC(NCc4cnn(-c5ccccc5)c4)CC3)c2n1", "µg/mL", 16],
  ["COc1ccc2nccc(CCN3CCC(NCc4ccccc4)CC3)c2n1", "µg/mL", 64],
  ["O=c1ccc2ncc(=O)n3c2n1C[C@H]3CN1CCC(NCc2cc3c(cn2)OCCC3)CC1 [Gepotidacin, reference compound]", "µg/mL", 1],
  ["COc1ccc(CNC2CCN(CCc3ccnc4ccc(OC)nc34)CC2)cn1", "µg/mL", 16],
  ["COc1ccc2nccc(CCN3CCC(NCc4ccc(N(C)C)cc4)CC3)c2n1", "µg/mL", 32]
]}

---

# TARGET_OF_ASSAY: Human topoisomerase IIα (Homo sapiens)
# Construct: purchased Inspiralis (Norwich, UK)
# Sequence (P11388 whole entry): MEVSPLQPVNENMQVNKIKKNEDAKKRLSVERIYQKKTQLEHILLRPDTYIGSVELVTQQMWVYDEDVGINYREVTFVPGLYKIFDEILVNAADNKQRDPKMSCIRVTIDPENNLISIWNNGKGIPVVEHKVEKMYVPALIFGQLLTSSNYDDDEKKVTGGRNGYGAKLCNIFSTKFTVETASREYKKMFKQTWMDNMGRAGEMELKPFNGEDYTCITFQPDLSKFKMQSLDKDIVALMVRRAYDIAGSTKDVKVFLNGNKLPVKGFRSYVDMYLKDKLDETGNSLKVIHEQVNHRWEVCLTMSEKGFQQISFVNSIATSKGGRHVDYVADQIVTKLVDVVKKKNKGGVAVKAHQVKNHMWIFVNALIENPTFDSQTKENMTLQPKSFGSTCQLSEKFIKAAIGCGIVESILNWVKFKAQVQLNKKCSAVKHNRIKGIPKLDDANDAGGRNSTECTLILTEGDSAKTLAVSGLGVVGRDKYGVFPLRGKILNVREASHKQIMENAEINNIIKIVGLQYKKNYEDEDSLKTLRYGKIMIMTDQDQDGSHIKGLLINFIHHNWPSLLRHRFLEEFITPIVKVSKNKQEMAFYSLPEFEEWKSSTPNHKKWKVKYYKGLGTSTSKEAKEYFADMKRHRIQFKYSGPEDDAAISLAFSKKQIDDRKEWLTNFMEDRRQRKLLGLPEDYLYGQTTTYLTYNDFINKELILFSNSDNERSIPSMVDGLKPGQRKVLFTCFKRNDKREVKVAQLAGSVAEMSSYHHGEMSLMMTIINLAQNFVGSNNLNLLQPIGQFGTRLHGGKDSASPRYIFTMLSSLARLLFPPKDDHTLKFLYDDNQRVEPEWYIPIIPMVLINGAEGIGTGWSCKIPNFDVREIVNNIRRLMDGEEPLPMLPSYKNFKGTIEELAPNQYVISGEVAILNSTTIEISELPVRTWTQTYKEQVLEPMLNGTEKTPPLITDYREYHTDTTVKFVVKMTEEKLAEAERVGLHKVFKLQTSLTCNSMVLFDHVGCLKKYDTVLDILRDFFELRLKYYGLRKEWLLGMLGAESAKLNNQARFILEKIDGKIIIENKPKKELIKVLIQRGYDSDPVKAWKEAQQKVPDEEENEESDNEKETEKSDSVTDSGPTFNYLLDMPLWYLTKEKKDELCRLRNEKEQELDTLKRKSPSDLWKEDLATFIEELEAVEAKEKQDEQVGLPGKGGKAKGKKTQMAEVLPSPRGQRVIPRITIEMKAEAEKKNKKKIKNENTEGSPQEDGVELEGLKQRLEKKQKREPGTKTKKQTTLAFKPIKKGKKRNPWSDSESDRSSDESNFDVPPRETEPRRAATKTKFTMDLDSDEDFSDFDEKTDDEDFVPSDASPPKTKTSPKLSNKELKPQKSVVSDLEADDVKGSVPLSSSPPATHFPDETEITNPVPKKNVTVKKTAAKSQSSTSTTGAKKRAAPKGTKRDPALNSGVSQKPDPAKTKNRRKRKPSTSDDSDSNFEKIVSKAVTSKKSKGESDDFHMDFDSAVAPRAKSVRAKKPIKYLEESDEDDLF
# ASSAY_INFO: Human topoisomerase II Alpha Relaxation High Throughput Plate assay
# Type: biochemical
# RECORDED_CONDITIONS: 0.5 h; residual activity of the enzyme at compound concentration 10 μM, mean ± SD; read-out: Human Topo II (% RA)
Recorded remaining activity at 10 µM, one value per entry.

{"columns": ["STRUCTURE", "remaining activity at 10 µM (%)"],
 "data": [
  ["COc1ccc2nccc(CCN3CCC(NCc4ccc(F)cc4)CC3)c2n1", 101],
  ["COc1ccc2nccc(CCN3CCC(NCc4ccc(C(F)(F)F)nc4)CC3)c2n1", 95.5],
  ["COc1ccc2nccc(CCN3CCC(NC(=O)c4cn5cccc(C#N)c5n4)CC3)c2n1", 90.3],
  ["COc1ccc2nccc(CCN3CCC(NCc4cnn(-c5ccccc5)c4)CC3)c2n1", 82.1],
  ["COc1ccc2nccc(CCN3CCC(NCc4cnn(-c5ccccc5)n4)CC3)c2n1", 94.2],
  ["COc1ccc2nccc(CCN3CCC(NCc4ccc(Br)cc4)CC3)c2n1", 98.2]
]}

---

# Test system: HepG2
# ASSAY_INFO: Metabolic activity assessment (cytotoxicity), HepG2
# Format: cell-based
# RECORDED_CONDITIONS: Homo sapiens, HepG2, metabolic activity after 72 h treatment
pIC50: −log10 of the molar value.
The entries below are paired with their reported pIC50.

{"columns": ["STRUCTURE", "pIC50"],
 "data": [
  ["C=CCn1cc(CNC2CCN(CCc3ccnc4ccc(OC)nc34)CC2)cn1", "< 4.30"],
  ["COc1ccc2nccc(CCN3CCC(NCc4ccc(C(F)(F)F)nc4)CC3)c2n1", "< 4.30"],
  ["COc1ccc2nccc(CCN3CCC(NCc4cnn(C(C)C)c4)CC3)c2n1", "< 4.30"]
]}

Source listed as paper PMC8300687.
